test: physchem
Endpoint: pKa
Reply: number alone, nothing else.

* O=C(O)c1ccccn1 [pyridine-2-carboxylic acid] | 2.1
* O=C(O)c1ccncc1 [pyridine-4-carboxylic acid] | 1.54

Request: Which pKa value belongs to O=C(O)c1cccnc1 [pyridine-3-carboxylic acid] ?
Result: 1.3
